Values were extracted from patent US20240299591A1.

# System: Fusarium oxysporum
# Format: cell-based
# Run conditions: 24 h
Where a SMILES comes first, the peptide text is derived from it. [ ]: non-standard residue; d: D form. The star is where a group is joined. X2 = O=C1OC2(c3ccc(O)cc3Oc3cc(O)ccc32)c2cccc(C(=O)*)c21
Label key: t means IC50 Fusarium oxysporum under 3 µg/mL; f means IC50 Fusarium oxysporum of 3 µg/mL or more.

Compound: N=C(N)NCCC[C@H](N)C(=O)N[C@@H](CCCCN)C(=O)N[C@@H](CCCCN)C(=O)N[C@H](Cc1ccccc1)C(=O)N[C@@H](Cc1c[nH]c2ccccc12)C(=O)N[C@@H](Cc1ccccc1)C(=O)N[C@@H](Cc1c[nH]c2ccccc12)C(=O)NCC(=O)O [MFIGAF002, NH2-Arg-Lys-Lys-phe-Trp-Phe-Trp-Gly-COOH] (HELM PEPTIDE1{R.K.K.[dF].W.F.W.G}$$$$V2.0)
Category label: f
//
Compound: N=C(N)NCCC[C@H](N)C(=O)N[C@@H](CCCCN)C(=O)N[C@@H](CCCCN)C(=O)N1CCC[C@H]1C(=O)N[C@@H](Cc1c[nH]c2ccccc12)C(=O)N[C@@H](Cc1ccccc1)C(=O)N[C@@H](Cc1c[nH]c2ccccc12)C(=O)NCC(=O)O [MFIGAF003, NH2-Arg-Lys-Lys-pro-Trp-Phe-Trp-Gly-COOH]
Category label: f
//
Compound: N=C(N)NCCC[C@@H]1NC(=O)CNC(=O)[C@H](CCCCNC(=O)c2cccc3c2C(=O)OC32c3ccc(O)cc3Oc3cc(O)ccc32)NC(=O)[C@H](Cc2c[nH]c3ccccc23)NC(=O)[C@H](Cc2ccccc2)NC(=O)[C@H](Cc2c[nH]c3ccccc23)NC(=O)[C@@H](Cc2ccccc2)NC(=O)[C@H](CCCCN)NC(=O)[C@H](CCCCN)NC1=O [MFIGAF001b] (cyclo(FWK(X2)GRKK[dF]W))
Category label: t
//
Compound: N=C(N)NCCC[C@@H]1NC(=O)CNC(=O)[C@H](Cc2c[nH]c3ccccc23)NC(=O)[C@H](Cc2ccccc2)NC(=O)[C@H](Cc2c[nH]c3ccccc23)NC(=O)[C@@H]2CCCN2C(=O)[C@H](CCCCN)NC(=O)[C@H](CCCCN)NC1=O [MFIGAF007, Cyclo(Arg-Lys-Lys-pro-Trp-Phe-Trp-Gly)]
Category label: f

Quick check: does N=C(N)NCCC[C@@H]1NC(=O)CNC(=O)[C@H](Cc2c[nH]c3ccccc23)NC(=O)[C@H](Cc2ccccc2)NC(=O)[C@H](Cc2c[nH]c3ccccc23)NC(=O)[C@H]2CCCN2C(=O)[C@H](CCCCN)NC(=O)[C@H](CCCCN)NC1=O [MFIGAF008] have IC50 Fusarium oxysporum under 3 µg/mL? f
